These measurements were taken from patent US20130096105A1.

Molecular target: Gelatinase (MMP-2) (Homo sapiens)
Assay: Gelatinase (MMP-2) inhibitory activity, fluorogenic peptide substrate cleavage
Format: biochemical
Details: read-out: MMP02 IC50
pIC50: −log10 of the molar value.
observation_type: pIC50

Example entries and their recorded answers appear below.
Exercise: Report pIC50 for CC(C)c1n[nH]c2cc(C(=O)c3ccc(Cl)c(S(N)(=O)=O)c3)ccc12
Key: 5.20

Exercise: Report pIC50 for CC(C)COc1ccc(C(=O)c2ccc(Cl)c(S(N)(=O)=O)c2)cc1 [Example 17]
Key: 5.64

Exercise: Report pIC50 for COc1ccc(C(=O)c2ccc(Cl)c(S(=O)(=O)NCCc3ccccc3)c2)cc1
Key: 5.04

A: NS(=O)(=O)c1cc(C(=O)c2ccc3c4c([nH]c3c2)C(=O)NCC4)ccc1Cl
B: Cc1ccc(C(=O)c2ccc3cc[nH]c3c2)cc1S(N)(=O)=O
C: Cc1ccc(C(=O)c2ccc(Cl)c(S(N)(=O)=O)c2)c(Br)c1
Exercise: Order field: pIC50 | Direction: descending (largest first) Arrange the labels as the request states and list them.
Key: C, B, A
(C: 7.28, B: 6.70, A: 5.10)

* * *

Target: Gelatinase (MMP-2) (Homo sapiens)
Assay: Gelatinase (MMP-2) inhibitory activity, fluorogenic peptide substrate cleavage
Assay type: biochemical
Settings: read-out: MMP02 IC50
pIC50: −log10 of the molar value.
observation_type: pIC50

Example entries and their recorded answers appear below.
Exercise: Report pIC50 for NS(=O)(=O)c1cc(C(=O)c2ccc(-c3ccc(C(F)(F)F)cc3)cc2)ccc1Cl [Example 62]
Key: 5.66

Exercise: Report pIC50 for NS(=O)(=O)c1cc(C(=O)c2cccs2)ccc1Cl [Example 96]
Key: 5.00

Exercise: Report pIC50 for CC(C)(C)c1ccc(C(=O)c2ccc(Cl)c(S(N)(=O)=O)c2)cc1 [Example 26]
Key: 4.76

Exercise: Report pIC50 for NS(=O)(=O)c1cc(C(=O)c2ccc(-c3ccccc3F)cc2)ccc1Cl [Example 64]
Key: 5.39

a: NS(=O)(=O)c1cc(C(=O)c2ccc(C3CCCC3)cc2)ccc1Cl [Example 28]
b: NS(=O)(=O)c1cc(C(=O)c2ccc3[nH]ccc3c2)ccc1Cl [Example 116]
Exercise: Hi there! Just curious which has the higher pIC50 between a and b . Please indicate the selected item by its label.
Key: a
(a: 5.37, b: 4.81)

* * *

Biological target: Collagenase-3 (MMP-13) (Homo sapiens, UniProt P45452)
Assay: Collagenase-3 (MMP-13) inhibitory activity, fluorogenic peptide substrate cleavage
Assay type: biochemical
Conditions: read-out: MMP13 IC50
observation_type: IC50 (nM)

Example entries and their recorded answers appear below.
Exercise: Report IC50 for NS(=O)(=O)c1cc(C(=O)c2ccc3c(-c4ccc(C(=O)N5CCOCC5)cc4)c[nH]c3c2)ccc1Cl
Key: 730

Exercise: Report IC50 for CC(C)(C)C(=O)N1CCc2c([nH]c3ccc(C(=O)c4ccc(Cl)c(S(N)(=O)=O)c4)cc23)C1
Key: 950

Exercise: Report IC50 for CCS(=O)(=O)c1ccc(-c2c[nH]c3cc(C(=O)c4ccc(Cl)c(S(N)(=O)=O)c4)ccc23)cc1
Key: 1010

Exercise: Report IC50 for CN1CCN(c2ccc(C(=O)c3ccc(Cl)c(S(N)(=O)=O)c3)cc2)CC1
Key: 1190

Exercise: Report IC50 for NS(=O)(=O)c1cc(C(=O)c2ccc3c(-c4ccccc4)c[nH]c3c2)ccc1Cl
Key: 1030

A: NS(=O)(=O)c1cc(C(=O)c2ccc(N3CC=CC3)cc2)ccc1Cl
B: CC(=O)c1ccc(-c2c[nH]c3cc(C(=O)c4ccc(Cl)c(S(N)(=O)=O)c4)ccc23)cc1
Exercise: Hi there! Just curious which has the higher IC50 between A and B . Please indicate the selected item by its label.
Key: B
(B: 1450 nM, A: 1010 nM)

* * *

Molecular target: Collagenase-3 (MMP-13) (Homo sapiens, UniProt P45452)
Test: Collagenase-3 (MMP-13) inhibitory activity, fluorogenic peptide substrate cleavage
Type: biochemical
Details: read-out: MMP13 IC50
pIC50: −log10 of the molar value.
observation_type: pIC50

Exercise: Provide measured pIC50 on Collagenase-3 (MMP-13) (Homo sapiens, UniProt P45452) for CS(=O)(=O)c1ccc(-c2c[nH]c3cc(C(=O)c4ccc(Cl)c(S(N)(=O)=O)c4)ccc23)cc1 please.
Key: 6.27

I: C#Cc1ccc(C(=O)c2ccc(Cl)c(S(N)(=O)=O)c2)cc1
II: NS(=O)(=O)c1cc(C(=O)c2ccc(-c3cccc([N+](=O)[O-])c3)cc2)ccc1Cl
Exercise: Lab note: check whether I or II has the lower measured pIC50. Please indicate the selected item by its label.
Key: I
(I: 4.91, II: 5.50)

* * *

Molecular target: Gelatinase (MMP-2) (Homo sapiens, UniProt P08253)
Assay: Gelatinase (MMP-2) inhibitory activity, fluorogenic peptide substrate cleavage
Type: biochemical
Details: read-out: MMP02 IC50
observation_type: IC50 (µM)

Exercise: Report IC50 for CS(=O)(=O)c1ccc(-c2c[nH]c3cc(C(=O)c4ccc(Cl)c(S(N)(=O)=O)c4)ccc23)cc1
Key: 19.7

Exercise: Report IC50 for NS(=O)(=O)c1cc(C(=O)c2ccc(-c3ccccc3)cc2)ccc1Cl [Example 76]
Key: 21.7

Exercise: Report IC50 for Cc1ccc(C)n1-c1ccc(C(=O)c2ccc(Cl)c(S(N)(=O)=O)c2)cc1F
Key: 21.8

Exercise: Report IC50 for C[Si](C)(C)C#Cc1ccc(C(=O)c2ccc(Cl)c(S(N)(=O)=O)c2)cc1
Key: 1.23

* * *

Biological target: Gelatinase (MMP-2) (Homo sapiens)
Sequence (P08253 110-660): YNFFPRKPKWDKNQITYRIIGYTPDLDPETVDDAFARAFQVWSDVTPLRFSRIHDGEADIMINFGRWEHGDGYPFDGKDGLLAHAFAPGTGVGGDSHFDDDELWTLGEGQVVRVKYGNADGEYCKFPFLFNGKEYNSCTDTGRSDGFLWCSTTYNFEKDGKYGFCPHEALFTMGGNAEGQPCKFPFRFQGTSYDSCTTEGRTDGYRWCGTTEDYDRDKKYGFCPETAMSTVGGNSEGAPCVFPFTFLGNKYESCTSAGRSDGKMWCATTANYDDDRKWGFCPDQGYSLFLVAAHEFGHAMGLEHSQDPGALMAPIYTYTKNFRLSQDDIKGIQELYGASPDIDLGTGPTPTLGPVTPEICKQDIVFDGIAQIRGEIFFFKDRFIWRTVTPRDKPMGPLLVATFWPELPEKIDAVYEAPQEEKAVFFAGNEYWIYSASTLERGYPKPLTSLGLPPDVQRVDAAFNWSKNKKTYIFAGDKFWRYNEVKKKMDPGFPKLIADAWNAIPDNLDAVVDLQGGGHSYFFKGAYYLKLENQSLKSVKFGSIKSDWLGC
Assay: Gelatinase (MMP-2) inhibitory activity, fluorogenic peptide substrate cleavage
Assay type: biochemical
Details: read-out: MMP02 IC50
observation_type: IC50 (nM)

Exercise: Report IC50 for NS(=O)(=O)c1cc(C(=O)c2ccc(Br)cc2)ccc1Cl [Example 23]
Key: 4150

I: NS(=O)(=O)c1cc(C(=O)c2ccc3c(-c4ccccc4)c[nH]c3c2)ccc1Cl
II: NS(=O)(=O)c1cc(C(=O)c2ccc(-n3cccc3)cc2)ccc1Cl
III: COc1ccc(C(=O)c2ccc(Cl)c(S(N)(=O)=O)c2)cc1
IV: CC(C)CCOc1ccc(C(=O)c2ccc(Cl)c(S(N)(=O)=O)c2)cc1
Exercise: Order each entry by recorded IC50, climbing from the minimum. Arrange the labels as the request states and list them.
Key: IV, II, I, III
(IV: 700 nM, II: 1150 nM, I: 2000 nM, III: 5180 nM)

1: CCCCCCOc1ccc(C(=O)c2ccc(Cl)c(S(N)(=O)=O)c2)cc1
2: CN1CCN(c2ccc(C(=O)c3ccc(Cl)c(S(N)(=O)=O)c3)cc2)CC1
3: NS(=O)(=O)c1cc(C(=O)c2ccc(C(=O)NCCCCc3ccccc3)cc2)ccc1Cl
4: CN1C(=O)CCC2=C1Cc1cc(C(=O)c3ccc(Cl)c(S(N)(=O)=O)c3)ccc12
Exercise: Order field: IC50 | Direction: descending (largest first) Arrange the labels as the request states and list them.
Key: 3, 1, 2, 4
(3: 22800 nM, 1: 4730 nM, 2: 1740 nM, 4: 27 nM)

a: COc1ccc(C(=O)c2ccc(SC)c(S(N)(=O)=O)c2)cc1
b: NS(=O)(=O)c1cc(C(=O)c2ccc(OCCCc3ccccc3)cc2)ccc1Cl
Exercise: Hi there! Just curious which has the higher IC50 between a and b . Please indicate the selected item by its label.
Key: a

a: NS(=O)(=O)c1cc(C(=O)c2ccc(N3CCC3=O)cc2)ccc1Cl
b: Nc1cccc(-c2ccc(C(=O)c3ccc(Cl)c(S(N)(=O)=O)c3)cc2)c1
c: COc1ccc(C(=O)c2ccc([S+](C)[O-])c(S(N)(=O)=O)c2)cc1 (stereo not shown)
Exercise: Order field: IC50 | Direction: descending (largest first) Arrange the labels as the request states and list them.
Key: c, a, b

I: COc1ccc(C(=O)c2ccc([N+](=O)[O-])c(S(N)(=O)=O)c2)cc1
II: NS(=O)(=O)c1cc(C(=O)c2ccc(O)cc2F)ccc1Cl
III: NS(=O)(=O)c1cc(C(=O)c2ccc3c(-c4ccnc(C5CC5)c4)c[nH]c3c2)ccc1Cl
IV: COc1ccc(C(=O)c2ccc(F)c(S(N)(=O)=O)c2)cc1
Exercise: Order each entry by recorded IC50, climbing from the minimum. Arrange the labels as the request states and list them.
Key: I, IV, III, II
(I: 1060 nM, IV: 2410 nM, III: 4150 nM, II: 24300 nM)

I: NS(=O)(=O)c1cc(C(=O)c2ccc3c(-c4ccnc(CCCN5CCOCC5)c4)c[nH]c3c2)ccc1Cl
II: Cc1cc(-c2c[nH]c3cc(C(=O)c4cccc(S(N)(=O)=O)c4)ccc23)ccn1
Exercise: Hi there! Just curious which has the higher IC50 between I and II . Please indicate the selected item by its label.
Key: II
